Ref: patent US20140336259A1

- Tested on: MCF-7 (estrogen receptor (ER) positive) human breast cancer cells
- MEASUREMENT_DESCRIPTION: MTS antiproliferative/cytotoxicity assay on MCF-7 cells
- CONDITIONS_USED: read-out: IC50 MCF-7 24 h; 24 h; listed as QUEBECOL Natural
MEASUREMENT_TYPE: pIC50
Give bare numbers, as −log10 of the molar value.

## Input Need pIC50 of COc1cc(C(CO)C(c2ccc(O)c(OC)c2)c2ccc(O)c(OC)c2)ccc1O (stereo not shown) [QUEBECOL] , thanks.
## Output 3.81

---

- Test system: MDA-MB-231 (ER negative) human breast cancer cells
- MEASUREMENT_DESCRIPTION: MTS antiproliferative/cytotoxicity assay on MDA-MB-231 cells
- Format: cell-based
- CONDITIONS_USED: read-out: IC50 MDA-MB-231 48 h; 48 h
MEASUREMENT_TYPE: IC50 (µM)
Answers are plain numbers, in µM.

COc1ccc(C(O)(c2ccc(OC)c(F)c2)c2ccc(OC)c(F)c2)cc1F [TRD7]
75.3

## Input Need IC50 of COc1cc(C(CO)C(c2ccc(O)c(OC)c2)c2ccc(O)c(OC)c2)ccc1O (centres unmarked) [QUEBECOL SYNTHETIC] , thanks.
## Output 130

---

- Tested on: MDA-MB-231 (ER negative) human breast cancer cells
- MEASUREMENT_DESCRIPTION: MTS antiproliferative/cytotoxicity assay on MDA-MB-231 cells
- Type: cell-based
- CONDITIONS_USED: Homo sapiens, MDA-MB-231, 72 h, 72 h treatment, mean ± S.D., vs DMSO 0.5% control; read-out: MDA-MB-231 IC50
MEASUREMENT_TYPE: IC50 (µg/mL)
Numbers only, in µg/mL.

Quick request: IC50 for each listed item, please.
1. COc1cc(C(CO)C(c2ccc(O)c(OC)c2)c2ccc(O)c(OC)c2)ccc1O (stereo not shown)
2. COc1ccc(C(O)(c2ccc(OC)c(Br)c2)c2ccc(OC)c(Br)c2)cc1Br

## Output
50.7
97.8

## Input Need IC50 of CCOC(=O)C(c1ccc(O)c(OC)c1)C(c1ccc(O)c(OC)c1)c1ccc(O)c(OC)c1 (stereo not shown) , thanks.
## Output 85.1

---

- Test system: MCF-7 (estrogen receptor (ER) positive) human breast cancer cells
- MEASUREMENT_DESCRIPTION: MTS antiproliferative/cytotoxicity assay on MCF-7 cells
- CONDITIONS_USED: read-out: IC50 MCF-7 96 h; 96 h
MEASUREMENT_TYPE: pIC50
Numbers only, as −log10 of the molar value.

COc1ccc(C(O)(c2ccc(OC)c(C=O)c2)c2ccc(OC)c(C=O)c2)cc1C=O [TRD8]
4.79
COc1ccc(C(O)(c2ccc(OC)c(Br)c2)c2ccc(OC)c(Br)c2)cc1Br [TRD9]
3.85
OCc1cc(CCCCCCCCCCCCc2ccc(O)c(CO)c2)ccc1O [TRD5]
3.79
COc1cc(C(O)c2ccc(OCc3ccccc3)c(OC)c2)ccc1OCc1ccccc1 [QB46]
4.09
COC(=O)c1cc(C(O)(c2ccc(O)c(C(=O)OC)c2)c2ccc(O)c(C(=O)OC)c2)ccc1O [TRD1]
3.79

Quick request: pIC50 for each listed item, please.
1. COc1ccc(C(O)(c2ccc(OC)c(Cl)c2)c2ccc(OC)c(Cl)c2)cc1Cl [TRD10]
2. COc1cc(C(O)c2ccccc2OC)ccc1OCc1ccccc1 (centres unmarked) [QB12]
3. COc1ccc(C(O)(c2ccc(OC)c(F)c2)c2ccc(OC)c(F)c2)cc1F [TRD7]
4. CCOC(=O)C(c1ccc(OCc2ccccc2)c(OC)c1)C(c1ccc(OCc2ccccc2)c(OC)c1)c1ccc(OCc2ccccc2)c(OC)c1 (centres unmarked) [QB56]

## Output
3.92
3.77
4.24
3.77

Quick request: pIC50 for each listed item, please.
1. COc1ccc(C(O)(c2ccc(OC)c(O)c2)c2ccc(OC)c(O)c2)cc1O [TRD6]
2. COc1cc(C(CO)C(c2ccc(O)c(OC)c2)c2ccc(O)c(OC)c2)ccc1O (centres unmarked) [QUEBECOL SYNTHETIC]

## Output
1. 3.96
2. 4.05
